These data points were gathered from patent US12553889B2.

system: αSyn (Homo sapiens, UniProt P37840, Q99C)
Construct: made in house; host or cells: E. coli BL21(DE3), pET28b
protocol-notes: αSyn FRET (Cy3/Cy5) oligomerization assay
Format: biochemical
property: activity in FRET αSyn oligomerization assay

CNC(=O)c1cc(O)ccc1NC [Compound 581858] : also active
CNC(=O)c1cc(O)ccc1N(C)C [Compound 581823] : also active
CNC(=O)c1cc(O)ccc1O [Compound 583854, 2,5-dihydroxy-N-methylbenzamide] : also active

---

system: αSyn (Homo sapiens)
property: pKd
Value format note: pKd is -log10 of concentration (mol/L); just state the number.

response.value for CNC(=O)c1cc(O)ccc1N [Compound 576755, 2-amino-5-hydroxy-N-methylbenzamide] (field: pKd) = 4.14
